B1: KRT33B (parent)
chain: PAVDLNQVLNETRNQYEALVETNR

# Variants of: B1
# test.summary: protein stability index of a GFP-peptide fusion (GPS, HEK-293T) (PSI 1-6); higher = more stable;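 further: lentivirally expressed fusions sorted by FACS into six bins by GFP to DsRed ratio, PSI derived from sequencing read proportions per bin multiplied by bin number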
# measurement.parameters: c terminus: a fixed tail appended
protein stability index for assorted variants
Just the number, please, no unit attached.

L5Q; 4.78
Y16E; 4.85
Q7Y; 3.83
Q15P; 4.39
R24W; 3.46

Query: Using the record for L5V , state its measured protein stability index.
Response: 3.02

Query: Look up protein stability index of N23G and report it.
Response: 4.07

Query: Name the recorded protein stability index of the item D4G in your answer.
Response: 4.02

Query: # return recorded protein stability index for entry V20M
Response: 2.8

Query: Give the value of protein stability index reported for the following: V20R
Response: 4.43

Query: Provide protein stability index value for the following variant: L9S
Response: 4.96
